Applied conditions: Ebola virus entry assay, reporter ratio channel; Channel type: primary
Calls of active or inactive are those of the source. The rule behind the calls is not given here.
Just give me one of these, please: Y = active, N = inactive

Exercise: For "CCCOC(=O)c1ccc(O)cc1" , what call appears in the results of this test?
Solution: N

Exercise: Test call for this compound, please: "CC(=O)[O][Hg][c]1ccccc1"
Solution: Y

Exercise: For "O=S(c1cc(Cl)cc(Cl)c1O)c1cc(Cl)cc(Cl)c1O" , what call appears in the results of this test?
Solution: N

Exercise: Query: recorded result category for CCC(=O)O[C@@H]1C=C2CCC3C(CCC4(C)C3CC[C@@H]4OC(=O)CC)C2CC1 (stereo partly drawn) in this test
Solution: N

Exercise: What call does the record list for "CN1CCN(c2c(F)cc3c(=O)c(C(=O)O)cn4c3c2OCN4C)CC1" ?
Solution: N

New cases:
Exercise: Lab log entry: "Nc1ccc(N=Nc2ccccc2)cc1" — outcome as called in the assay?
Solution: N

Exercise: Returns: the outcome recorded for "O=[N+]([O-])c1c(Cl)c(Cl)cc(Cl)c1Cl" in this assay.
Solution: N

Exercise: Assay result, entry "CCCCOC(=O)c1ccccc1C(=O)OCc1ccccc1" — outcome?
Solution: N

Where do these numbers come from? They come from PubChem BioAssay (NCATS).
